method description: Food effect on administration of sepiapterin: plasma concentrations of BH4 and sepiapterin in fasted and fed subjects
Format: in vivo
protocol conditions: human, plasma; fasted; sepiapterin 10 mg/kg oral; 12 h; read-out: Sepiapterin Concentration in Plasma, Maximum
measurement name: concentration at 12 h (nM)
Give bare numbers, in nM.

In: Let me know recorded concentration at 12 h for C[C@H](O)C(=O)C1=Nc2c(nc(N)[nH]c2=O)NC1 [sepiapterin, Sepiapterin] , thanks.
Out: 0

###

method description: Food effect on administration of sepiapterin: plasma concentrations of BH4 and sepiapterin in fasted and fed subjects
Type: in vivo
protocol conditions: human, plasma; fasted; sepiapterin 10 mg/kg oral; 0.5 h; read-out: Sepiapterin Concentration in Plasma, Minimum
measurement name: concentration at 0.5 h (nM)
Answers are plain numbers, in nM.

In: Let me know recorded concentration at 0.5 h for C[C@H](O)C(=O)C1=Nc2c(nc(N)[nH]c2=O)NC1 [sepiapterin, Sepiapterin] , thanks.
Out: 0

###

method description: Food effect on administration of sepiapterin: plasma concentrations of BH4 and sepiapterin in fasted and fed subjects
Assay type: in vivo
protocol conditions: human, plasma; fed; sepiapterin 10 mg/kg oral; 1 h; read-out: Sepiapterin Concentration in Plasma, Minimum
measurement name: concentration at 1 h
Respond with a number, then the unit of measure.

In: Let me know recorded concentration at 1 h for C[C@H](O)C(=O)C1=Nc2c(nc(N)[nH]c2=O)NC1 [sepiapterin, Sepiapterin] , thanks.
Out: 0 nM

###

method description: Food effect on administration of sepiapterin: plasma concentrations of BH4 and sepiapterin in fasted and fed subjects
Type: in vivo
protocol conditions: human, plasma; fasted; sepiapterin 10 mg/kg oral; 8 h; read-out: Sepiapterin Concentration in Plasma, Maximum
measurement name: concentration at 8 h (nM)
Answers are plain numbers, in nM.

In: Let me know recorded concentration at 8 h for C[C@H](O)C(=O)C1=Nc2c(nc(N)[nH]c2=O)NC1 [sepiapterin, Sepiapterin] , thanks.
Out: 0

###

method description: Food effect on administration of sepiapterin: plasma concentrations of BH4 and sepiapterin in fasted and fed subjects
Assay type: in vivo
protocol conditions: human, plasma; fed; sepiapterin 10 mg/kg oral; 0 h (predose); read-out: Sepiapterin Concentration in Plasma, Minimum
measurement name: concentration at 0 h (nM)
Numbers only, in nM.

In: Let me know recorded concentration at 0 h for C[C@H](O)C(=O)C1=Nc2c(nc(N)[nH]c2=O)NC1 [sepiapterin, Sepiapterin] , thanks.
Out: 0
